Recorded measurements of z-score, one per entry
Assay: HepG2 cell viability effects, profiling panel, calcein-AM fluorescence, 48 h, basal (AID 1164); note: test concentration not given here
Conditions: higher = more signal

For orientation, consider the following solved cases.
C=CC[C@@]12N=C(c3ccc(OCCCO)cc3)O[C@@H]1c1ccccc1CN(Cc1ccccc1)C2=O	-1.92
CO[C@H]1COC(=O)CC=C[C@H](C)[C@@H](OC)COC(=O)[C@H](Cc2ccccc2)NC(=O)CC=C[C@@H]1C	0.219
C=CCC(OC(C)=O)[C@@H]1[C@@H](N(Cc2cccc3ccccc23)C(=O)c2ccc(C)cc2)c2cc(OCCCO)ccc2N1C(=O)c1ccc(-c2ccccc2)cc1 (some centres not stated)	1.47
COc1ccc(CCN2C(=O)[C@@]3(c4ccc([N+](=O)[O-])cc4)CC(=O)N(CC45CC6CC(CC(C6)C4)C5)[C@@H]3c3ccc(CO)cc32)cc1	0.71
CCN1C(C)=C(C(=O)OC)[C@@H](c2ccccc2)N2C(=O)[C@@]3(C(=O)OC)O[C@@]12[C@@H]1C(=O)N(c2ccccc2)C(=O)[C@@H]13	-0.805

Quick one: z-score of COC(=O)[C@@]1(Cc2ccccc2N=[N+]=[N-])N=C(c2ccc(OCCCO)cc2)O[C@H]1c1ccccc1CN=[N+]=[N-] ?
-5.51

Look at this compound and give its reported z-score. COC(=O)C[C@H]1O[C@]2(C(=O)N(Cc3ccccc3)c3ccc(I)cc32)[C@@H](C)[C@@H]1[Si](C)(C)c1ccc(OC)cc1
0.638

---

Assay: CREB reporter modulators without forskolin, primary screen, cell-based, PC12, CRE-LacZ reporter, unstimulated (AID 1145)
Conditions: no forskolin, luminescence, 4.5 h, higher = more signal, called active from +8 up or from −8 down
The source made the active and inactive calls.
measuredProperty: z-score

Would you please look over these solved cases?
NC(=O)[C@H]1[C@@H]2C(=O)O[C@@H](c3ccccc3)[C@@H](c3ccccc3)N2[C@@H](c2ccc(O)cc2)[C@]12C(=O)Nc1ccc(C#CCCO)cc12	-0.258 (inactive)
C=CC[C@@]12N=C(c3ccc(OCCCO)cc3)O[C@@H]1c1ccccc1CN(Cc1ccccc1)C2=O	2.16 (inactive)

Which z-score value belongs to C=CCC(OC(C)=O)[C@@H]1[C@@H](N(Cc2cc3ccccc3o2)C(=O)c2ccc(C)cc2)c2cc(OCCCO)ccc2N1C(=O)c1ccc2ccccc2n1 (some centres undefined) ?
5.44 (inactive)

What value of z-score has been reported for the following compound? Cc1ccc(S[C@]2(C(=O)O)CC(=O)N(Cc3cc(C(F)(F)F)cc(C(F)(F)F)c3)[C@@H]2c2ccc(CO)cc2I)cc1
0.261 (inactive)

Give the measured z-score of Cc1ccc(S[C@]2(C(=O)O)CC(=O)N(Cc3ccccc3)[C@@H]2c2ccc(CO)cc2)cc1 .
-0.412 (inactive)

Please look up its z-score: COc1ccc([Si](C)(C)[C@@H]2[C@@H](CC(=O)N(CCO)Cc3ccccc3)O[C@]3(C(=O)N(Cc4cccc(N5CCC5=O)c4)c4ccccc43)[C@H]2C)cc1
0.236 (inactive)

Sample C=CCNC(=O)[C@H]1[C@@H]2C(=O)O[C@@H](c3ccccc3)[C@@H](c3ccccc3)N2[C@@H](c2ccc(O)cc2)[C@]12C(=O)Nc1ccc(C#CCNC(N)=O)cc12 — what was its z-score?
-0.594 (inactive)

Query: z-score; subject: COCCCNC(=O)[C@@]1(Sc2ccc(C)cc2)CC(=O)N(Cc2cc(C(F)(F)F)cc(C(F)(F)F)c2)[C@@H]1c1ccc(CO)cc1I
1.01 (inactive)

---

Here the recorded z-score is given for each entry.
Assay: basal RPMI8226 mitochondrial membrane potential changes, profiling panel, cell-based, JC-1 fluorescence, 24 h, 100 nL compound (AID 1169); note: test concentration not given here
Conditions: RPMI8226 myeloma, JC-1 mitochondrial potential fluorescence, higher = more signal
Field format: numeric only.

O=C1OCC=C[C@H]2OC34C=CCN(Cc5ccccc5)C(=O)[C@H]3N(CCO)C(=O)[C@@H]4[C@@H]12 (stereo partly specified)	-0.0019
COC(=O)[C@@]1(Cc2ccc(OC)cc2)[C@H]2c3cc(C(=O)N(C)C)n(CCc4ccc(OC)c(Br)c4)c3C[C@H]2CN1C(=O)c1ccccc1	-0.855
CC(C)C[C@@H]1NC(=O)[C@H]2C[C@@H](C(=O)NCCCCCC[N+](C)(C)C)[C@@H](c3ccc(O)cc3)N2C1=O	-0.342
O=C1c2ccccc2[C@](Cc2ccccc2I)(C(=O)NCc2ccccc2)[C@H](c2ccc(CO)cc2)N1Cc1ccccc1C(F)(F)F	0.467
COCCOC(=O)N1C(=O)[C@@]2(c3ccccc31)[C@H](C(=O)N1CCc3cc(OC)c(OC)cc3C1)[C@H]1C(=O)O[C@H](c3ccccc3)[C@H](c3ccccc3)N1[C@@H]2c1ccccc1OCCO	-0.181

Consider the molecule C=CCC(OC(C)=O)[C@@H]1[C@@H](N(Cc2cc3ccccc3o2)C(=O)Cc2ccc(F)cc2)c2cc(OCCCO)ccc2N1C(=O)c1ccc(-c2ccccc2)cc1 (stereo partly specified) and give its measured z-score.
0.602

---

Experiment: small-molecule microarray binders of probe aDKK1, primary screen, biochemical, biotinylated probe, 635/667 nm fluorescence (AID 1099);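 note: score merges 667nm spot fluorescence with signal to noise across triplicate slides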
Details: higher = more signal
Could you label it Fulfilled if measured composite z-score is -0.2 or higher, and Not fulfilled otherwise?

# count of solved cases: 6
O=C(N1CCCCC1)[C@@]1(CCS(=O)(=O)c2ccccc2)N=C(c2ccc(OCCCO)cc2)O[C@H]1c1ccccc1	Fulfilled
C=CCN(C(=O)C1N(c2ccc(CCO)cc2)C(=O)C2C(C(=O)O)C3C=CC21O3)C(C)(C)C (centres undefined)	Not fulfilled
CC(=O)NCCCC[C@@H]1NC(=O)[C@H]2C[C@@H](C(=O)NCCCCCCN(C)C)[C@@H](c3cccc(OCCO)c3)N2C1=O	Fulfilled
C=C(COC)/C(=C/C[C@H](OC(C)=O)c1ccc(OCCO)cc1)c1cnc2ccccc2c1	Fulfilled
COc1cc(CO)cc(I)c1O[C@H]1C=C(C(=O)NCCO)C[C@@H](N(CC2CCCCC2)C(=O)c2cc3ccccc3oc2=O)[C@@H]1O	Not fulfilled
CO[C@@H]1COC(=O)[C@H](COCc2ccccc2)NC(=O)CC=C[C@@H](C)[C@H](OC)COC(=O)[C@H](COCc2ccccc2)NC(=O)CC=C[C@H]1C	Not fulfilled

Can O=C/C=C/c1ccccc1Cl be said to have composite z-score at or above -0.2?
Fulfilled

Please check the record C=C(C(=O)CC[C@H](OC(=O)c1ccccc1-c1ccccc1C(=O)O)c1ccc(CO)o1)C(C)C and state if its composite z-score is at or above -0.2.
Not fulfilled

Could you please find out whether CO[C@H]1COC(=O)[C@@H](C)NC(=O)CC=C[C@@H](C)[C@H](OC)COC(=O)CC=C[C@@H]1C has composite z-score that meets -0.2 or exceeds it?
Not fulfilled

Please check the record COc1ccc(C(O)C2C=CC3C(=O)N(C)C(=O)C3N2N2CCCCC2)cc1OCc1ccccc1 (centres undefined) and state if its composite z-score is at or above -0.2.
Fulfilled

Is the recorded value of composite z-score equal to or greater than -0.2 for this compound? C=CC[C@]1(C(=O)O)N=C(c2ccc(OCCCO)cc2)O[C@H]1c1ccccc1N=[N+]=[N-]
Fulfilled

Textbook exercise: given the entry C=CCC(OC(C)=O)[C@@H]1[C@@H](N(Cc2cc3ccccc3o2)C(=O)Cc2ccc(F)cc2)c2cc(OCCCO)ccc2N1C(=O)c1ccc(-c2ccccc2)cc1 (some centres undefined) , state whether its composite z-score is greater than or equal to -0.2.
Fulfilled

Quick check: does COc1cc(CO)cc(I)c1O[C@H]1C=C(C(=O)NCCO)C[C@@H](NCCc2c[nH]c3ccccc23)[C@@H]1O have composite z-score greater than or equal to -0.2?
Fulfilled

Does C[C@@H]1CC[C@H]2C(=O)N3[C@@H](CC[C@@H](C)[C@@H]3c3cccc(N4CCOCC4)c3)C(=O)N2[C@H]1c1cccc(Br)c1 have a reported composite z-score of at least -0.2?
Fulfilled

---

Molecular target: Calmodulin-1 (Homo sapiens)
Assay: calcium-bound CALM1 binders on microarrays, profiling panel, artefact control for SMM control-protein annotation, biochemical, small-molecule microarray, Cy5-labelled CALM1, plus calcium (AID 1112);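 note: score merges spot fluorescence with signal to noise from triplicate slides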
Conditions: Cy5-CALM1 binding fluorescence, higher = more signal
Each entry gets rule not met if its composite z-score stays under -0.4, and rule met if its composite z-score is -0.4 or above.

Determine whether this molecule has composite z-score no lower than -0.4: O=C1O[C@H](c2ccccc2)[C@H](c2ccccc2)N2[C@H]1[C@@H](C(=O)NC[C@H](O)c1ccccc1)[C@]1(C(=O)Nc3ccc(C#CC4(O)CCCCCC4)cc31)[C@H]2c1ccc(OCCO)cc1
rule met

Answer whether composite z-score of C=CCNC(=O)[C@H]1[C@@H]2C(=O)O[C@@H](c3ccccc3)[C@@H](c3ccccc3)N2[C@@H](c2ccccc2OCCO)[C@]12C(=O)N(C(=O)OCCOC)c1ccc(C#CCC(C(=O)OC)C(=O)OC)cc12 is greater than or equal to -0.4.
rule met

State whether the measured composite z-score reaches -0.4, counting equality as reaching it, for CC(C)[C@H]1NC(=O)[C@@]23C(=O)N[C@@H](Cc4ccccc4)C2[C@H](C)[C@@]2(C)O[C@H]2C3/C=C/C/C=C\CNC(=O)[C@H](C)NC1=O (some centres not stated)
rule not met

Say whether CO[C@H]1COC(=O)[C@H](C)NC(=O)CC=C[C@@H](C)[C@H](NS(=O)(=O)c2ccc(C)cc2)COC(=O)CC=C[C@@H]1C shows composite z-score of -0.4 or more.
rule not met

Form field: composite z-score at least -0.4? Entry: O=C1O[C@@H](c2ccccc2)[C@@H](c2ccccc2)N2[C@@H](c3ccc(O)cc3)[C@]3(C(=O)Nc4ccccc43)[C@@H](C(=O)N3CCN(c4ncccn4)CC3)[C@H]12
rule met
